- RUN DESCRIPTION: Solubility Characteristics of COPs
- Type: physicochemical
- CONDITION CONTEXT: Solvent H2O
No end group written: not given here.
Give 1.0 when the value for Conc. is at least 2000 µg/mL. Give 0.0 when it is less.

Examples with answers:
• RHYDGRTIIQRDNGYQPNYHAVNIVGYSNAQGVD [AllerDM1.64] = 1.0
• ASQHGCHGDTIPRGIEYIQHNGVVQESYYRYVAREQS [AllerDM1.53] = 1.0
• KYTWNVPKIAPKSENVVVTVKVLGDNGVLACAIATHAKIRD [AllerDM2.8] = 1.0
• HYMKCPLVKGQQYDIKYTWNVPKIAPKSENVVVTVKVLGDNGVLACAIATHAKIRD (cysteines drawn unpaired) [AllerDM2.5] = 0.0

Reported Conc. at or above 2000 µg/mL? KVLGDNGVLACAIATHAKIRD [AllerDM2.9]
0.0
